test system: ATP; assay: switch fluorescence ratio, 500 uM ATP over buffer (Cy3 cluster intensity, sum of 5 cycles each) (fold (ratio)); higher = stronger signal-on switching upon ATP binding; sequences stand for … in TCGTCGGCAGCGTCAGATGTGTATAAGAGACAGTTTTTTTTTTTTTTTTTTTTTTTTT…TC; details: aptamer strand: ATP DNA aptamer (quencher-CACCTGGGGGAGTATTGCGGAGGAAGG + anchor), 100 nM annealed; ATP concentration: 500 uM;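 note: ATP exposure 15 min at 22 °C before imaging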
Listed here: items and their measured switch fluorescence ratio.
API note: the answer field is a bare number with no unit suffix.

INSERT INTO results (residues, assay_target, value) VALUES
  ('AAAGTAGGAG', 'ATP', 0.98);

Problem: Give its switch fluorescence ratio value. Item: CCGGGTTCGC
Solution: 0.998

Problem: Give its switch fluorescence ratio value. Item: CGGTAAAGCG
Solution: 0.981

* * *

Listed here: items and their measured switch fluorescence ratio.
test system: ATP; test: switch fluorescence ratio, 500 uM ATP over buffer (Cy3 cluster intensity, sum of 5 cycles each) (fold (ratio)); higher = stronger signal-on switching upon ATP binding; sequences stand for … in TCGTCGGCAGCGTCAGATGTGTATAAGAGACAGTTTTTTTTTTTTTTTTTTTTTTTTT…TC; conditions: aptamer strand: ATP DNA aptamer (quencher-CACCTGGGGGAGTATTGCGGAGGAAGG + anchor), 100 nM annealed; ATP concentration: 500 uM;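 note: ATP exposure 15 min at 22 °C before imaging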
API note: the answer field is a bare number with no unit suffix.

INSERT INTO measurements (residues, assay_target, value) VALUES
  ('CTATTGGGCT', 'ATP', 1.01),
  ('AAATGTTTGG', 'ATP', 1.01),
  ('TTTGTTAAGG', 'ATP', 1.01),
  ('CGTTTGTGAG', 'ATP', 1);

Problem: Give its switch fluorescence ratio value. Item: TCGGTAGTG
Solution: 0.985

Problem: Give its switch fluorescence ratio value. Item: ATTGGAGCAG
Solution: 1.05

* * *

Listed here: items and their measured switch fluorescence ratio.
system: ATP; assay: switch fluorescence ratio, 500 uM ATP over buffer (Cy3 cluster intensity, sum of 5 cycles each) (fold (ratio)); higher = stronger signal-on switching upon ATP binding; sequences stand for … in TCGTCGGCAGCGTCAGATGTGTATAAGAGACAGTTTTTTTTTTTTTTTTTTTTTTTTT…TC; conditions: aptamer strand: ATP DNA aptamer (quencher-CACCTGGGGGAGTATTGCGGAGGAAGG + anchor), 100 nM annealed; ATP concentration: 500 uM;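 note: ATP exposure 15 min at 22 °C before imaging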
API note: the answer field is a bare number with no unit suffix.

Consider the reported switch fluorescence ratio for these sequences:
INSERT INTO measurements (residues, value) VALUES
  ('CGACTTGAAA', 1.04),
  ('GGCCCTGAGC', 0.999),
  ('TAATGTTATT', 0.987),
  ('GGGGTGGGCT', 0.956),
  ('TGAGTGGGGT', 1.02);

Problem: Give its switch fluorescence ratio value. Item: ACTACTTTCG
Solution: 1.03

Problem: Give its switch fluorescence ratio value. Item: TCTGTTGACG
Solution: 1.02

Problem: Give its switch fluorescence ratio value. Item: GTATGAAGTT
Solution: 0.982

* * *

tested on: ATP; test: switch fluorescence ratio, 500 uM ATP over buffer (Cy3 cluster intensity, sum of 5 cycles each) (fold (ratio)); higher = stronger signal-on switching upon ATP binding; sequences stand for … in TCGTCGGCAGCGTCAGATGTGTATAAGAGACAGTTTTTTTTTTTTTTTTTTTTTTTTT…TC; details: aptamer strand: ATP DNA aptamer (quencher-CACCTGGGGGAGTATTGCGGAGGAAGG + anchor), 100 nM annealed; ATP concentration: 500 uM;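 note: ATP exposure 15 min at 22 °C before imaging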
OBSERVABLE: switch fluorescence ratio
API note: the answer field is a bare number with no unit suffix.

INSERT INTO assay_data (residues, assay_target, value) VALUES
  ('GTTGCGGGGT', 'ATP', 1.02);

Problem: Give its switch fluorescence ratio value. Item: TCGGAGGTCC
Solution: 0.958

Problem: Give its switch fluorescence ratio value. Item: TATTCAACGG
Solution: 1.02

Problem: Give its switch fluorescence ratio value. Item: CATATGTGCG
Solution: 0.992

Problem: Give its switch fluorescence ratio value. Item: AGCCTGCCCT
Solution: 1.07

Problem: Give its switch fluorescence ratio value. Item: TGGGATAGAA
Solution: 0.996

Problem: Give its switch fluorescence ratio value. Item: CAGTAAGATC
Solution: 1.03

Problem: Give its switch fluorescence ratio value. Item: TGAAAAGTCG
Solution: 0.993

Problem: Give its switch fluorescence ratio value. Item: TATGTAGTCG
Solution: 1.02
